Item-by-item account of Enzyme Activity Endpoint Assay: Fab′2
molecular target: pooled human IgG (human IgG1, 2, 3 and 4)
MEASURED_ENDPOINT: Enzyme Activity Endpoint Assay: Fab′2

PROTEIN	MEASURED_ENDPOINT	RECORDED_MEASUREMENT
PRT-262 (protein) MVTSVWTKGVTPPTNFTYGEDVLHAPYVANQGWYDITKTFNGKDNLLCGAATAGNMLHWWFDQNKEQIENYLKKHPEKQKINFNGEQLFDVKEAIDTKDSQLDSKLFEYFLEKAFPNLSTKHLGVFPDHVIDMFINGYRLSLLNHGPTPVKRGSKDKRGGIFDAVFTRGVQSKLLTNRHDFKEKTLKEISDLIKQELTEGKALGISHTYANVRINHVINLWGADFDAEGNLEAIAVTDSDTNASIGMKKYFVGVNSSGKVAISAKEIEEDNIGAQVLGLFTLSTGQDIWNQTN	Enzyme Activity Endpoint Assay: Fab′2	50 ng/µL
PRT-453 (protein) MVTSVWTKGVTPPANFTQGEDVFHAPYKANQGWYDITKTFNGKDDLLCGAATAGNMLHWWFDQNKDQIEAYLKEHPEKQKINFNGEQMFDVKEAIDTKDDQTNSKLFEYFKEKAFPYLSTKHLGVFPDHVLDMFINGYRLSLTNHGPTPVKEGSKDPRGGIFDAVFTRGDQSKLLTSRHDLKNKTLKEISDLIKQELTEGKALALSHTYANVRINHVINLWGADFDSNGNLEAIYVTDSDSNASIGMKKYFVGVNSAGKVAISAKEIEDDNIGAQVLGLFTLSTGQDIWNQTNLEHHHHHH	Enzyme Activity Endpoint Assay: Fab′2	1620 ng/µL
PRT-566 (protein) MANQEIRYSEETPSTITSVWTKGVTPPTQFIQNEDVLHAPYIANQGWYDITKTFNGKDDLLCGAATAGNMLHWWFDQNKEQIENYLKKHPEKQKINFNGEQMFDVKEAIDTKDSQTDSALFEYFKDKAFPYLSTKHLGVFPDHVIDMFINGYRLSLTNHGPTPVKRGTKDPRGGIFDAVFTRGDQSKLLTSRHDFKEKTLNEISDLIKQELTEGKALGLSHTYANVRINHVINLWGADFNAEGNLEAIYVTDSDSNASIGMKKYYVGVNSAGKVAISAKEIEGDNIGAQVLGLFTLSTGQDIWNQTNLEHHHHHH	Enzyme Activity Endpoint Assay: Fab′2	621 ng/µL
PRT-452 (protein) MVTSVWTKGVTPPANFTQGEDVFHAPYKANQGWYDITKAFDGGDDLLCGAATAGNMLHWWFDQNKDQIEAYLKEHPEKQKINFNGEQMFDVKEAIDTKDDQTNSELFNYFKEKAFPYLSTKHLGVFPDHVLDMFINGYRLSLTNHGPTPVKEGSKDPRGGIFDAVFTRGDQSKLLTSRHDLKNKTLKEISDLIKQELTEGKALALSHTYANVRINHVINLWGADFDSNGNLEAIYVTDSDSNASIGMKKYFVGVNSAGKVAISAKEIEDDNIGAQVLGLFTLSTGQDIWNQTNLEHHHHHH	Enzyme Activity Endpoint Assay: Fab′2	0 ng/µL
